Reference for the values: patent US20020147129A1

# experimental target: embryonic chicken AT4 receptor (chicken)
# Sequence (F1NNE7 entry or part of it): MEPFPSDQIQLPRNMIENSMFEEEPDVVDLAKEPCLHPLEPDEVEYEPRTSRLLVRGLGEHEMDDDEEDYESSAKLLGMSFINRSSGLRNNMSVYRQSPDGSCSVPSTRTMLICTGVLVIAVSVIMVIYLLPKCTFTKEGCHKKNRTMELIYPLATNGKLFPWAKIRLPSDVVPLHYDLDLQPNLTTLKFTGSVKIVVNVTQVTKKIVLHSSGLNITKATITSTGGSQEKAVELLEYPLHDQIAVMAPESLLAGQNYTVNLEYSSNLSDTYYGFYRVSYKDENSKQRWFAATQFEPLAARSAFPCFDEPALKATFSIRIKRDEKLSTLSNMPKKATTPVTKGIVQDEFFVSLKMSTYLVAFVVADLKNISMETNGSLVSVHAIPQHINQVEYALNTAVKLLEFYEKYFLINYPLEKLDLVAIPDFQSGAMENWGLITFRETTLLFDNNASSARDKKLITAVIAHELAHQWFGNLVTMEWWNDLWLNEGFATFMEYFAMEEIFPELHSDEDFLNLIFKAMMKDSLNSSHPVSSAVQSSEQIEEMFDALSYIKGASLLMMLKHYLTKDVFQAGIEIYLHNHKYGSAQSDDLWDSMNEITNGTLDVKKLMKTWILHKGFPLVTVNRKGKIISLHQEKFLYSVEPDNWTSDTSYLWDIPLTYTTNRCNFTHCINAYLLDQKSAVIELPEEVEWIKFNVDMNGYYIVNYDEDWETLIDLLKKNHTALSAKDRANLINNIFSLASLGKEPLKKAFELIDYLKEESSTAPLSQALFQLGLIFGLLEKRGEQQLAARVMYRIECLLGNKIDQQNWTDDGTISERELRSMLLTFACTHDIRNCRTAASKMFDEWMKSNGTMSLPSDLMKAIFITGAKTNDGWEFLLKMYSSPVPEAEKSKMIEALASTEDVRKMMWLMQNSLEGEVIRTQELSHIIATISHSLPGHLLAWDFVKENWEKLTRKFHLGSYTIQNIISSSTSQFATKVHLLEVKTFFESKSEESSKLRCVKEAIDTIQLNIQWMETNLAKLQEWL
# test details: competition for [125I]Ang IV binding, E13 chicken chorioallantoic membranes
Where no end group is shown, it is not given here. [ ]: non-standard residue; d: D form. Nle = CCCC[C@H](N)C(=O)O
reported property: IC50 (µM)

binder | reported property | display unit | reported
[Nle]YIHPF [Nle^1-AIV] | IC50 | µM | 0.043
